Where do these numbers come from? They come from patent US20090227619A1.

System: Kunming mice;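 note: acute toxicity in Kunming mice grouped by sex, one intraperitoneal dose at five graded levels in Tween-80 plus 0.5% CMC-Na, deaths monitored over two weeks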
ASSAY SETUP: male mice, 240 mg/kg, single i.p.
METRIC: Death rate

Ask: Entry under review: CCOC(=O)c1cc2c([nH]c3ccccc32)c(C)n1 [Compound 11, ethyl 1-methyl-β-carboline-3-carboxylate] . Reported Death rate?
Result: 80

Ask: Quick one: OCc1cc2c3ccccc3n(Cc3ccccc3)c2cn1 [Compound 42, 9-benzyl-3-hydroxymethyl-β-carboline]
Result: 40

Ask: Quick one: O=C(O)c1cc2c3ccccc3n(CCCc3ccccc3)c2cn1
Result: 60

Ask: Quick one: c1ccc(Cn2c3ccccc3c3ccncc32)cc1
Result: 0

Ask: Quick one: CCCCn1c2ccccc2c2cc(C(=O)O)ncc21
Result: 0
